system: Staphylococcus aureus; assay: Antibacterial activity against methicillin-resistant Staphylococcus aureus; format: functional
observedProperty: MIC (µg/mL)
Please respond with the number in µg/mL and leave the unit unwritten.

Before answering, review these 3 worked examples.
NCCCCCCNC(=O)/C=C/c1ccc(O)c(O)c1    100
NCCCCCNC(=O)CCc1ccc(O)c(O)c1    50
NCCCCNC(=O)CCc1ccc(O)c(O)c1    25

Next:
What the record says about NCCCNC(=O)CCc1ccc(O)c(O)c1 : MIC is 50

====

test system: Staphylococcus aureus; assay: Antibacterial activity against methicillin-resistant Staphylococcus aureus 20631; assay type: functional
observedProperty: MIC

Before answering, review these 4 worked examples.
NCCCNC(=O)CCc1ccc(O)c(O)c1    50 µg/mL
NCCCCNC(=O)CCc1ccc(O)c(O)c1    25 µg/mL
CN[C@H](CC(C)C)C(=O)N[C@H]1C(=O)N[C@@H](CC(N)=O)C(=O)N[C@H]2C(=O)N[C@H]3C(=O)N[C@H](C(=O)N[C@H](C(=O)O)c4cc(O)cc(O)c4-c4cc3ccc4O)[C@H](O)c3ccc(c(Cl)c3)Oc3cc2cc(c3O[C@@H]2O[C@H](CO)[C@@H](O)[C@H](O)[C@H]2O[C@H]2C[C@](C)(N)[C@H](O)[C@H](C)O2)Oc2ccc(cc2Cl)[C@H]1O [VANCOMYCIN]    48 µg/mL
NCCCCCNC(=O)CCc1ccc(O)c(O)c1    50 µg/mL

Next:
What the record says about NCCCCCCNC(=O)/C=C/c1ccc(O)c(O)c1 : MIC is 50 µg/mL

====

system: Staphylococcus aureus; assay: Antibacterial activity against methicillin-resistant Staphylococcus aureus 20630; type: functional
observedProperty: MIC (µg/mL)
Please respond with the number in µg/mL and leave the unit unwritten.

Before answering, review these 4 worked examples.
NCCCCCNC(=O)CCc1ccc(O)c(O)c1    50
CN[C@H](CC(C)C)C(=O)N[C@H]1C(=O)N[C@@H](CC(N)=O)C(=O)N[C@H]2C(=O)N[C@H]3C(=O)N[C@H](C(=O)N[C@H](C(=O)O)c4cc(O)cc(O)c4-c4cc3ccc4O)[C@H](O)c3ccc(c(Cl)c3)Oc3cc2cc(c3O[C@@H]2O[C@H](CO)[C@@H](O)[C@H](O)[C@H]2O[C@H]2C[C@](C)(N)[C@H](O)[C@H](C)O2)Oc2ccc(cc2Cl)[C@H]1O    1.5
NCCCCCCNC(=O)/C=C/c1ccc(O)c(O)c1    50
NCCCCNC(=O)CCc1ccc(O)c(O)c1    50

What the record says about NCCCNC(=O)CCc1ccc(O)c(O)c1 : MIC is 50
